# testSummary: Ethanol extraction rate (ISO 175-2011)
# Type: physicochemical
# conditionLabel: PVC composite with 30 parts plasticizer, room temperature, 72 h
# Protocol: The above plasticizer is the mixed aconitates prepared in Example 37, and composite materials are prepared according to the above weight ratio and preparation method respectively. At the same time, dioctyl phthalate, tributyl citrate, tributyl aconitate and triisooctyl aconitate are respectively selected as plasticizers to prepare composite materials according to the above weight ratio and preparation method. The test method is the same as that in Test 2 except for the following: • 1. […]
Where a name gives a salt, the structure may show the parent alone.
valueType: Ethanol extraction rate (%)
The reply should contain only the number, in %.

> print(dat)
                                   compound  valuereported
1  CCCCOC(=O)C=C(CC(=O)OCCCC)C(=O)OCCCC [Tributyl aconitate, tributyl aconitate]           3.71
2  CC(C)CCCCCOC(=O)C=C(CC(=O)OCCCCCC(C)C)C(=O)OCCCCCC(C)C [Triisooctyl aconitate, triisooctyl aconitate]          14.52
3  CCCCCCCCOC(=O)c1ccccc1C(=O)OCCCCCCCC [Dioctyl Phthalate, dioctyl phthalate]           5.13

Kindly consider the entry below.
[Q] Input CCCCOC(=O)CC(O)(CC(=O)OCCCC)C(=O)OCCCC [Tributyl citrate, tributyl citrate] , output reported Ethanol extraction rate.
[A] 4.96

====

# testSummary: Residual amounts of fat-soluble and water-soluble pigments (HPLC)
# Assay type: physicochemical
# conditionLabel: aconitate/citrate products, Table 4
List of Residual amounts of fat-soluble pigments values.
The reply should contain only the number, in ppm.

> print(dat)
                                   molecule  unitname  valuereported
1  CCCCOC(=O)C=C(CC(=O)OCCCC)C(=O)OCCCC [Comparative Example 1, tributyl aconitate, reference compound]       ppm          16424

[Q] Input CCCCC(CC)COC(=O)C=C(CC(=O)OCC(CC)CCCC)C(=O)OCC(CC)CCCC (stereo not shown) [Example 20, tri(2-ethylhexyl) aconitate] , output reported Residual amounts of fat-soluble pigments.
[A] 634

[Q] Input CCCCOC(=O)C=C(CC(=O)OCCCC)C(=O)OCCCC [Example 31, tributyl aconitate] , output reported Residual amounts of fat-soluble pigments.
[A] 427

[Q] Input CCCCOC(=O)C=C(CC(=O)OCCCC)C(=O)OCCCC [Example 30, tributyl aconitate] , output reported Residual amounts of fat-soluble pigments.
[A] 463

====

List of Compatibility values.
# testSummary: Compatibility (water value method)
# Assay type: physicochemical
# conditionLabel: 2.5 g plasticizer and 25 g acetone titrated with deionized water until turbidity; Table 5
# Description: The aconitates and tributyl citrate prepared in the above examples and comparative examples were added as plasticizers to PVC resin to obtain PVC plastics. […] In the experiment, 2.5 g of plasticizer and 25 g of acetone were added to a beaker, titrated with a burette filled with deionized water, and agitated while titrating until turbidity appears, and the volume of deionized water consumed was recorded. • 4. […]
Counter-ions that a name gives are not always drawn.
The reply should contain only the number, in mL.

> print(dat)
                                   compound      valuetype  valuereported
1  CCCCOC(=O)CC(O)(CC(=O)OCCCC)C(=O)OCCCC [Comparative Example 4, tributyl citrate, reference compound]  Compatibility           13.9
2  CCCCOC(=O)C=C(CC(=O)OCCCC)C(=O)OCCCC [Example 26, tributyl aconitate]  Compatibility           12.2
3  CCCCOC(=O)C=C(CC(=O)OCCCC)C(=O)OCCCC [Example 33, tributyl aconitate]  Compatibility           11.3

[Q] Input CCCCOC(=O)C=C(CC(=O)OCCCC)C(=O)OCCCC [Example 35, tributyl aconitate] , output reported Compatibility.
[A] 8.1

[Q] Input CCCCOC(=O)C=C(CC(=O)OCCCC)C(=O)OCCCC [Example 34, tributyl aconitate] , output reported Compatibility.
[A] 16.1

[Q] Input CCCCOC(=O)C=C(CC(=O)OCCCC)C(=O)OCCCC [Comparative Example 3, tributyl aconitate, reference compound] , output reported Compatibility.
[A] 12.5

[Q] Input CCCCOC(=O)C=C(CC(=O)OCCCC)C(=O)OCCCC [Comparative Example 2, tributyl aconitate, reference compound] , output reported Compatibility.
[A] 12.5
